Target: T1, human BKB2R-derived epitope peptide (SEQ ID NO:73), PEG-biotin (human, also: PEG-biotin, site not given here)
T1 construct: also called immunogenic human BKB2R peptide fragment
T1 peptide: KEYSDEGHNVTAC
Test: BLI (Octet), peptide-PEG-biotin on streptavidin sensor, antibody 500 nM
Where no end group is shown, it is not given here.
Quick list: koff per entry.
Supply the numeric figure in s⁻¹, leaving out any unit text.

[
  {
    "BINDER": "humanized anti-BKB2R antibody L1/H2 (antibody, human IgG2, kappa, V domains shown) VH: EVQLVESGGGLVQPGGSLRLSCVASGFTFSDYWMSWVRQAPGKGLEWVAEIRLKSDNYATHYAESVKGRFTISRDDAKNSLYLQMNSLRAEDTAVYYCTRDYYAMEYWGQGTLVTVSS VL: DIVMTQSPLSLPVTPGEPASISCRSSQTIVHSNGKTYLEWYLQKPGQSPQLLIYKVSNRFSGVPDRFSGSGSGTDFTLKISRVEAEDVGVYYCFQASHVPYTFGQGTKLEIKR",
    "MEASUREMENT KIND": "koff",
    "QUANTITATIVE RESULT": 0.976
  },
  {
    "BINDER": "humanized anti-BKB2R antibody H37/L39 (antibody, human IgG2, kappa, V domains shown) VH: EVQLVESGGGLVQPGGSLRLSCAASGFTFSDYWMDWVRQAPGKGLEWVGEIRLKSDNYATHYAASVKGRFTISRDDSKNSLYLQMNSLKTEDTAVYYCTRDYYAMEYWGQGTTVTVSS VL: DVVMTQTPLSLSVTPGQPASISCKSSQTIVHSNGKTYLEWYLQKPGQSPQLLIYKVSNRFSGVPDRFSGSGSGTDFTLKISRVEAEDVGVYYCFQASHVPYTFGQGTKLEIKR",
    "MEASUREMENT KIND": "koff",
    "QUANTITATIVE RESULT": 1.98
  },
  {
    "BINDER": "humanized anti-BKB2R antibody H39/L38 (antibody, human IgG2, kappa, V domains shown) VH: EVKLVESGGGLVQPGGSLRLSCAVSGFTFSDYWMDWVRQAPGKGLEWVAEIRLKSDNYATHYAASVKGRFTISRDDSKSRLYLQMNSLKTEDTAVYYCTRDYYAMEYWGQGTTVTVSS VL: DIVMTQTPLSLPVTSGEPASISCRSSQTIVHSNGKTYLDWYLQKPGQSPQLLIYKVSNRASGVPDRFSGSGSGTDFTLKISRVEAEDVGVYYCFQASHVPYTFGGGTKVEIKR",
    "MEASUREMENT KIND": "koff",
    "QUANTITATIVE RESULT": 4.9
  },
  {
    "BINDER": "humanized anti-BKB2R antibody L1/H1 (antibody, human IgG2, kappa, V domains shown, also called H1/L1) VH: EVQLVESGGGLVQPGGSLRLSCAASGFTFSDYWMSWVRQAPGKGLEWVAEIRLKSDNYATHYAESVKGRFTISRDNAKNSLYLQMNSLRAEDTAVYYCTRDYYAMEYWGQGTLVTVSS VL: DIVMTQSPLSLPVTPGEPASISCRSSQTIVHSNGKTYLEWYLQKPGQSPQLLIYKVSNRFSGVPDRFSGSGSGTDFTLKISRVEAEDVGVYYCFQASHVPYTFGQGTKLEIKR",
    "MEASUREMENT KIND": "koff",
    "QUANTITATIVE RESULT": 0.942
  }
]

Check the records and state koff for humanized anti-BKB2R antibody H39/L39 (antibody, human IgG2, kappa, V domains shown) VH: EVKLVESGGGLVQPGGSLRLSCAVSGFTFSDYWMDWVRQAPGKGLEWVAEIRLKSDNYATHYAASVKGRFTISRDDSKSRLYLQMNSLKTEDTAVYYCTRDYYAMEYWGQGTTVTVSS VL: DVVMTQTPLSLSVTPGQPASISCKSSQTIVHSNGKTYLEWYLQKPGQSPQLLIYKVSNRFSGVPDRFSGSGSGTDFTLKISRVEAEDVGVYYCFQASHVPYTFGQGTKLEIKR
1.26

State, in one line, measured koff of humanized anti-BKB2R antibody H37/L38 (antibody, human IgG2, kappa, V domains shown) VH: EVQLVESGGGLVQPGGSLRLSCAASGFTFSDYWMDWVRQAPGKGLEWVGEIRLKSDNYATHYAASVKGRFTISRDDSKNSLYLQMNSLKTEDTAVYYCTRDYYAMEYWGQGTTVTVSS VL: DIVMTQTPLSLPVTSGEPASISCRSSQTIVHSNGKTYLDWYLQKPGQSPQLLIYKVSNRASGVPDRFSGSGSGTDFTLKISRVEAEDVGVYYCFQASHVPYTFGGGTKVEIKR
2.08

Quote koff reported for chimeric/humanized anti-BKB2R antibody L2/HC (antibody, human IgG2, V domains shown, not shown: human IgG2 constant region) VH: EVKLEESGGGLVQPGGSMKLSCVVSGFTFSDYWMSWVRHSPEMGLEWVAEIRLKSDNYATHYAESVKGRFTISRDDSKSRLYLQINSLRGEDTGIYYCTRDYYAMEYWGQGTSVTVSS VL: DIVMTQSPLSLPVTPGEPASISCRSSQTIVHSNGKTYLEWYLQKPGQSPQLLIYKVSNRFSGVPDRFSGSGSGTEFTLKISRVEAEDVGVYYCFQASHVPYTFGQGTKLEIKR please.
0.655

Output measured koff for this item: humanized anti-BKB2R antibody H38/L39 (antibody, human IgG2, kappa, V domains shown) VH: EVQLLESGGGLVQPGGSLKLSCAVSGFTFSDYWMSWVRQAPGKGLEWVSEIRLKSDNYATHYADSVKGRFTISRDDSKNTLYLQMNSLRAEDTAVYYCTRDYYAMEYWGQGTLVTVSS VL: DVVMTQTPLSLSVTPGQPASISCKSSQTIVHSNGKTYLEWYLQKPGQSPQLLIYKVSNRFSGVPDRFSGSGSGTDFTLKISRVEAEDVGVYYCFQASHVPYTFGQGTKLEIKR
106

Identify measured koff associated with humanized anti-BKB2R antibody H38/L38 (antibody, human IgG2, kappa, V domains shown) VH: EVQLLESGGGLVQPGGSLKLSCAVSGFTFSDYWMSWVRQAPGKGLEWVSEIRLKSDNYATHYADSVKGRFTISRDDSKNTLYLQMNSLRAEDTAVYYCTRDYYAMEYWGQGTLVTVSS VL: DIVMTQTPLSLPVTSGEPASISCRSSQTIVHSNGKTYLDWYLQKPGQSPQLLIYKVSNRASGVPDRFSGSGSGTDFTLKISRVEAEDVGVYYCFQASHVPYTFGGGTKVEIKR
0.00763

Using known records, supply koff for humanized anti-BKB2R antibody L2/H2 (antibody, human IgG2, kappa, V domains shown, also called H2/L2) VH: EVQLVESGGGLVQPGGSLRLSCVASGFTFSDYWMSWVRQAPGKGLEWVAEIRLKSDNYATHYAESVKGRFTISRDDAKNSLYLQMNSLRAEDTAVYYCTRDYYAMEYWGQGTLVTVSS VL: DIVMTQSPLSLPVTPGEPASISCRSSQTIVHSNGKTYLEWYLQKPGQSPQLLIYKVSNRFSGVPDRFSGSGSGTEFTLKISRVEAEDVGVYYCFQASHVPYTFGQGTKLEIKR
0.0223
